- Experiment: chemical genetic growth profiling, strain panel (AID 1159580);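 further: tested at 20 µM; growth read once vehicle control cultures reached saturation at 30 °C; 1 = growth at the plate median or of vehicle wells; lower values mean less growth of the strain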
- Protocol Conditions: S. cerevisiae deletion strains, growth OD, locus YBR135W, strain CKS1, stronger effect = lower value
About 2,000 (36%) of roughly 5,500 compounds were called active. Another 18% or so got no clear call; they are omitted. This is one part of the list.
compounds and their reported normalized growth
Property Measured: normalized growth

INSERT INTO measurements (compound, property_measured, measured_number) VALUES
  ('CCC(C)c1ccccc1NC(=O)c1cc2cccc([N+](=O)[O-])c2[nH]1 (stereo not drawn)', 'normalized growth', 0.912),
  ('S=C(Nc1cc(-c2cccs2)[nH]n1)Nc1ccccc1Cl', 'normalized growth', 0.934),
  ('O=C(CCN1CCCCC1)c1ccc(-c2ccccc2)cc1', 'normalized growth', 0.984),
  ('NCCCN=c1ccc2c3c1c(O)c1c(O)ccc(=O)c1c3[nH]n2CCNCCO', 'normalized growth', 0.986),
  ('C/C(=N/NC(N)=S)c1ccc(Oc2c(Cl)cncc2Cl)cc1', 'normalized growth', 0.983),
  ('N#C/C(=C\c1ccccc1Sc1ccc(Cl)cc1)S(=O)(=O)c1ccccn1', 'normalized growth', 0.957),
  ('CC(C)(C)C1=NN(c2nc3ccc(Cl)cc3s2)C(=O)C1', 'normalized growth', 0.0897),
  ('O=C(NCc1ccco1)c1ccc(Oc2cc(Cl)cc(Cl)c2)o1', 'normalized growth', 0.964),
  ('O=[N+]([O-])c1cc(C(F)(F)F)ccc1-n1ccc(-c2cccs2)n1', 'normalized growth', 0.948),
  ('Cn1c([N+](=O)[O-])cnc1/C=C(\C#N)C(=O)Nc1ccc(F)cc1', 'normalized growth', 0.436),
  ('O=C(Oc1cc(Cl)c(Cl)cc1Cl)C1c2ccccc2Oc2ccccc21', 'normalized growth', 0.944),
  ('Cc1ccccc1C(=O)N1CCc2c([nH]c3ccccc23)C1C(F)(F)F (stereo not drawn)', 'normalized growth', 0.986),
  ('Cc1c(Cl)cccc1NC(=S)N1CCCN(c2nc3ccc(Cl)cc3s2)CC1', 'normalized growth', 0.983),
  ('O=C(Nc1cc(Cl)cc(Cl)c1)Nc1cc(-c2cccs2)[nH]n1', 'normalized growth', 0.958),
  ('O=C(Nc1cc(Cl)cc(Cl)c1)Nc1cc(-c2ccco2)[nH]n1', 'normalized growth', 0.929),
  ('COc1ccc(NC(=O)O/N=C(/N)c2ccc(Oc3c(Cl)cncc3Cl)cc2)cc1', 'normalized growth', 0.975),
  ('C/C(=N/NC(N)=S)c1ccccn1', 'normalized growth', 0.971),
  ('Cc1c(Cl)cccc1NC(=S)N1CCCN(c2ccc(C(F)(F)F)cc2[N+](=O)[O-])CC1', 'normalized growth', 0.992);

----------
- Experiment: chemical genetic growth profiling, strain panel (AID 1159580);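 further: tested at 20 µM; growth read once vehicle control cultures reached saturation at 30 °C; 1 = growth at the plate median or of vehicle wells; lower values mean less growth of the strain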
- Protocol Conditions: S. cerevisiae deletion strains, growth OD, locus YPL241C, strain CIN2, stronger effect = lower value
In all, about 5,500 compounds went through this assay and about 2,000 (36%) were called active. Not shown: some 18% with an inconclusive outcome. The list shows a part of the results.
molecules and their reported normalized growth
Property Measured: normalized growth

INSERT INTO results (molecule, property_measured, result) VALUES
  ('CCc1nc(N)nc(N)c1-c1ccc(Cl)cc1', 'normalized growth', '1.01 (inactive)'),
  ('O=C(Nc1ccccc1C(=O)Nc1ccc(Br)cc1)c1ccccc1', 'normalized growth', '1.01 (inactive)'),
  ('S=C=NCc1ccccc1', 'normalized growth', '0.0506 (active)'),
  ('O=C(CSc1ccc(C(F)(F)F)cn1)N1CCc2c([nH]c3ccccc23)C1C(F)(F)F (centres undefined)', 'normalized growth', '0.936 (inactive)'),
  ('COC(=O)C1[C@H]2C[C@H]3c4[nH]c5ccccc5c4CCN3C[C@@H]2CC[C@@H]1O (some centres undefined)', 'normalized growth', '1.01 (inactive)'),
  ('N=c1nc(N2CCCCC2)cc(N)n1O', 'normalized growth', '0.976 (inactive)'),
  ('CC(=O)O[C@]1(C(C)=O)CCC2C3C=C(C)C4=CC(=O)CCC4(C)C3CCC21C (some centres undefined)', 'normalized growth', '0.982 (inactive)'),
  ('CN1C/C(=C\c2ccccc2Cl)C(=O)/C(=C/c2ccccc2Cl)C1', 'normalized growth', '0.676 (active)'),
  ('CCC(C(=O)O)c1ccccc1 (centres undefined)', 'normalized growth', '1.01 (inactive)'),
  ('O=C(O)CSCC(=O)N1CCc2c([nH]c3ccccc23)C1C(F)(F)F (centres undefined)', 'normalized growth', '1.22 [resistant] (active)'),
  ('CCCCOc1ccc(CC(=O)NO)cc1', 'normalized growth', '0.994 (inactive)'),
  ('O=C(c1ccccc1)C1CCN(c2ccc(C(F)(F)F)cc2[N+](=O)[O-])CC1', 'normalized growth', '0.931 (inactive)'),
  ('OCCN(CCO)c1nc(N2CCCCC2)c2nc(N(CCO)CCO)nc(N3CCCCC3)c2n1', 'normalized growth', '1 (inactive)'),
  ('Cc1cc(=O)c2c(O)c(C)c(O)cc2o1', 'normalized growth', '0.997 (inactive)'),
  ('Cc1c(Cl)cccc1SCC(=O)O', 'normalized growth', '1 (inactive)'),
  ('CCCC(=O)NCCc1c2n(c3ccc(OC)cc13)Cc1ccccc1-2', 'normalized growth', '1.01 (inactive)'),
  ('NC(=O)c1ncn([C@@H]2O[C@H](CO)[C@@H](O)[C@H]2O)c1O', 'normalized growth', '1 (inactive)'),
  ('O=C(O)[C@H]1NCCC[C@H]1C(=O)O', 'normalized growth', '0.996 (inactive)'),
  ('O=C(O)COCC(=O)N1CCc2c([nH]c3ccccc23)C1C(F)(F)F (centres undefined)', 'normalized growth', '1.07 (inactive)'),
  ('CNC(=S)NN=C(N)c1ccccn1', 'normalized growth', '0.682 (active)'),
  ('C[N+](C)(C)CCOP(=O)([O-])OP(=O)(O)OC[C@H]1OC(n2ccc(N)nc2=O)[C@H](O)[C@@H]1O (some centres undefined)', 'normalized growth', '0.992 (inactive)'),
  ('O=C(O)c1ccccc1OP(=O)(O)O', 'normalized growth', '1.01 (inactive)'),
  ('CC(C)C[C@H]1C(=O)N2CCC[C@H]2[C@]2(O)O[C@](NC(=O)[C@@H]3C=C4c5cccc6[nH]c(Br)c(c56)C[C@H]4N(C)C3)(C(C)C)C(=O)N12', 'normalized growth', '0.989 (inactive)'),
  ('CCOC(=O)/C=C(\C)OP(=O)(OC)OC', 'normalized growth', '0.993 (inactive)');
